FYI, the data here is from paper PMC5540273.

system: FLT3; settings: concentration: 1 μM, replicates: in singlicate; n = 1;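 note: KINOMEscan kinase panel screen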
Record rule met whenever %Inh is at 4% or higher; record rule not met when lower.

- molecular_string: "Fc1ccc(-c2ncn(CCCN3CCOCC3)c2-c2ccccn2)cc1"
  class: "rule met"
- molecular_string: "O=c1cc(N2CCOCC2)nc2n(Cc3cccc(C(F)(F)F)c3)ccn12"
  class: "rule not met"
- molecular_string: "CCCCCc1nc2c(N)ncnc2n1CCCCC"
  class: "rule not met"
- molecular_string: "CCc1ccnc(/C=C/c2n[nH]c3cc(Sc4ccccc4C(=O)NC)ccc23)c1"
  class: "rule met"
- molecular_string: "COCCNC(=O)c1ccc(-c2cc(C(=O)NC3CC3)cc(F)c2C)cc1"
  class: "rule met"
- molecular_string: "Nc1nccc(-c2c(-c3ccc(F)cc3)ncn2C2CCN(CC(F)(F)F)CC2)n1"
  class: "rule met"

# check: %Inh of `Cc1cccc(-c2nc(-c3ccc(S(C)(=O)=O)cc3)sc2-c2ccncc2)c1` is greater than or equal to 4%
rule met

Check the entry `O=C(NCCNc1ccnc(Nc2ccc(F)cc2)n1)c1cc2ccccc2s1` : does %Inh equal or exceed 4%?
rule not met

* * *

Known %Inh of a selection of compounds
system: ADCK4; details: concentration: 1 μM, replicates: in singlicate; n = 1

- compound: "NCC(NC(=O)c1cc(-c2cn[nH]c2)c(-c2ccnc3[nH]ccc23)s1)c1ccccc1.O=C(O)C(F)(F)F.O=C(O)C(F)(F)F (stereo not shown)"
  %Inh: "58%"
- compound: "CC(C)(C)n1cnc2c(N)ncnc21"
  %Inh: "31%"
- compound: "Cc1cccc(-c2nc(Nc3ccc4ncsc4c3)c3ccccc3n2)n1"
  %Inh: "0%"

Param request: %Inh | system ADCK4 | item `Cn1ccc2ncnc(Oc3ccc(NC(=O)Nc4ccncc4)c(Cl)c3)c21`
0%

* * *

tested on: FLT4; conditions: concentration: 1 μM, replicates: in singlicate; n = 1
Binary label based on %Inh with cut-off 6%: below gives satisfied, not below gives not satisfied.

These recorded examples may help you get a feel for the data.
- molecule: "Cn1ccc2ncnc(Oc3ccc(NC(=O)Nc4ccncc4)c(Cl)c3)c21"
  target_entity: "FLT4"
  class: "satisfied"
- molecule: "c1ccc(-c2n[nH]cc2-c2ccnc3ccccc23)nc1"
  target_entity: "FLT4"
  class: "not satisfied"
- molecule: "O=C(Nc1cccc(-c2nn3ncccc3c2-c2ccnc(Nc3cccc(C(F)(F)F)c3)n2)c1)c1c(F)cccc1F"
  target_entity: "FLT4"
  class: "not satisfied"
- molecule: "COc1cc2c(cc1OC[C@@H](O)CO)ncc1c3ccc(C#N)cc3[nH]c21"
  target_entity: "FLT4"
  class: "not satisfied"
- molecule: "COc1cc(Nc2nccc(N3CCC(NC(=O)c4cccc(NC(C)=O)c4)C3)n2)cc(OC)c1OC (stereo not drawn)"
  target_entity: "FLT4"
  class: "not satisfied"
- molecule: "Cl.Oc1cccc(Nc2ccnc3cc(-c4ccncc4)ccc23)c1"
  target_entity: "FLT4"
  class: "not satisfied"

Shift focus to the following entry.
Decide: %Inh of `CN1c2ccc(CNc3ccc(F)cc3)cc2-c2c(cnn2C)S1(=O)=O` strictly below 6%?
satisfied

* * *

Entries and their measured %Inh follow.
tested on: CSNK1G2; conditions: concentration: 1 μM, replicates: in singlicate; n = 1
Answer in %, number only, no unit symbol.

- molecule: "NS(=O)(=O)c1cccc(-c2ccc3nccc(-c4cccc(S(N)(=O)=O)c4)c3c2)c1 [GW867253]"
  %Inh (%): 0

Return %Inh for the following molecule: Fc1ccc(-c2nn3c(OCC(F)(F)F)cccc3c2-c2ccncc2)cc1 [GW514784]
0

Supply %Inh value. Item: COc1ccc(CNC(=O)NC2CCN(c3ccnc(Nc4ccc(OC)cc4)n3)C2)cc1 (centres unmarked) [GSK1379727]
0

Return %Inh for the following molecule: Cn1cc(-c2ccc3c(c2)CCN3C(=O)Cc2ccccc2Cl)c2c(N)ncnc21 [GSK2608885]
3

Tell me measured %Inh for c1ccc(-c2cc(-c3c[nH]nc3-c3ccccn3)ccn2)cc1 [GW576604] please.
1

Please supply the value of reported %Inh for the item CC(C)Oc1ccc2c(-c3ccnc(Nc4ccc(N5CCN(C)CC5)cc4)n3)cnn2n1 [GW696155]
0

Identify the reported %Inh for the following entry. Nc1nccc(-c2c(-c3ccc(F)cc3)ncn2C2CCN(CC(F)(F)F)CC2)n1 [SB-236560]
1

Tell us which %Inh value is on record for NCC(NC(=O)c1cc(-c2cn[nH]c2)c(-c2ccnc3[nH]ccc23)s1)c1ccccc1.O=C(O)C(F)(F)F.O=C(O)C(F)(F)F (centres unmarked) [GSK1325775]
90

* * *

tested on: CLK3; details: concentration: 1 μM, replicates: in singlicate; n = 1
Recorded measurements of %Inh, one per entry
All answers are understood in %, so give the number only.

Worked examples follow.
- compound: "CCCCCc1nc2c(N)ncnc2n1CCCCC [SKF-97255]"
  target_entity: "CLK3"
  %Inh, %: 3
- compound: "CSc1ccc(-c2cc3ncnc(SCC(=O)O)c3s2)cc1"
  target_entity: "CLK3"
  %Inh, %: 0
- compound: "Cc1nnc(-c2ccc3occ(-c4ccc(C(C)O)cc4)c3c2)o1 (stereo not shown)"
  target_entity: "CLK3"
  %Inh, %: 6
- compound: "Nc1nc(-c2ccc3c(N)n[nH]c3c2)cc(N2CCCC2)n1 [GSK2227430]"
  target_entity: "CLK3"
  %Inh, %: 0
- compound: "O=c1cc(N2CCOCC2)nc2n(Cc3cccc(F)c3)ccn12 [GSK2297430]"
  target_entity: "CLK3"
  %Inh, %: 30

For the compound c1ccc(-c2cc(-c3c[nH]nc3-c3ccccn3)ccn2)cc1 [GW576604] , give its reported %Inh.
0

Supply %Inh value. Item: O=C(NCCNc1ccnc(Nc2ccc(F)cc2)n1)Nc1ccccc1F [GSK1379880]
2

Supply %Inh value. Item: `COc1cc2c(cc1OCCN1CCN(C)CC1)ncc1c3ccc(C#N)cc3[nH]c21`
25

Report %Inh for C[C@@H](Oc1cc(-n2cnc3ccc(NC(=O)NC(C)(C)C)cc32)sc1C(N)=O)c1ccccc1Cl [GSK346294]
22

Give recorded %Inh. O=C(Nc1n[nH]c2cc(-c3cccc(F)c3)ccc12)C1CC1 [SB-735464]
22

Specify measured %Inh for O=c1cc(N2CCOCC2)nc2n(Cc3cccc(Cl)c3Cl)c(C3CC3)nn12 [GSK2358994] .
14

Please give the documented %Inh of Cn1cc(-c2ccc3c(c2)CCN3C(=O)Cc2ccccc2Cl)c2c(N)ncnc21 [GSK2608885]
1

Report measured %Inh; entry is `CCc1ccnc(/C=C/c2n[nH]c3cc(Sc4ccccc4C(=O)NC)ccc23)c1`
0

Tell me its %Inh given CC(C)Oc1ccc2c(-c3ccnc(Nc4ccc(N5CCN(C)CC5)cc4)n3)cnn2n1 [GW696155] as the entry.
1

Supply measured %Inh of Fc1ccc(-c2ncn(CCCN3CCOCC3)c2-c2ccccn2)cc1 [SB-211742] in your reply.
3

# return recorded %Inh for entry Cc1cccc(Cn2ccn3c(=O)cc(N4CCOCC4)nc23)c1 [GSK2297542]
58

Note down %Inh recorded for Cc1ccc(NC(=O)c2ccnc(N3CCN(C)CC3)c2)cc1-c1ccc(C(=O)NCC2CC2)cc1 [GW775604]
0

Find the measured %Inh of COCCNC(=O)c1ccc(-c2cc(C(=O)NC3CC3)cc(F)c2C)cc1 [GW868318] and report it.
37

Report %Inh for Cl.Nc1ncnc2occ(-c3ccc(NC(=O)Nc4cc(C(F)(F)F)ccc4F)cc3)c12 [SB-707548]
13

* * *

This listing pairs compounds with measured %Inh.
tested on: EPHA6; conditions: concentration: 1 μM, replicates: in singlicate; n = 1
Value expressed in %; do not type the unit.

Worked examples follow.
- compound: "NCC(NC(=O)c1cc(-c2cn[nH]c2)c(-c2ccnc3[nH]ccc23)s1)c1ccccc1.O=C(O)C(F)(F)F.O=C(O)C(F)(F)F (centres unmarked)"
  parameter_measured: "%Inh"
  reported_value: 0
- compound: "Cc1c2ccc(N(C)c3ccnc(Nc4cccc(S(N)(=O)=O)c4)n3)cc2nn1Cc1ccccc1.Cl.Cl"
  parameter_measured: "%Inh"
  reported_value: 19
- compound: "O=C(Nc1cccc(-c2nn3ncccc3c2-c2ccnc(Nc3cccc(C(F)(F)F)c3)n2)c1)c1c(F)cccc1F"
  parameter_measured: "%Inh"
  reported_value: 11

Identify the reported %Inh for the following entry. `C[C@@H](Oc1cc(-n2cnc3ccc(NC(=O)NC(C)(C)C)cc32)sc1C(N)=O)c1ccccc1Cl`
5

Answer with the recorded %Inh of `Fc1ccc(-c2ncn(CCCN3CCOCC3)c2-c2cccnc2)cc1` only.
0

Return %Inh for the following compound: `CC(C)(C)n1cnc2c(N)ncnc21`
0

Specify %Inh for `CNc1ncnc2[nH]ncc12` and stop.
0

Consider the compound `N#Cc1ccc(-c2cc(-c3c[nH]nc3-c3ccccn3)ccn2)cc1` and give its recorded %Inh.
0
